Test details: Therapeutic index, ratio of IC50 for human H9 cells to EC50 of HIV1 3B
Format: cell-based
Experimental context: H9 cells, HIV-1 3B, read-out: Ratio IC50/EC50
Assay metric: selectivity ratio
Numbers only.

Here is how some molecules turned out for selectivity ratio.
Molecular string	selectivity ratio
CC1(C)C=C2[C@H]3CC[C@@H]4[C@@]5(C)CC[C@H](O)C(C)(C)[C@@H]5CC[C@@]4(C)[C@]3(C)CC[C@@]2(C(=O)O)CC1	8.17
COc1ccc(/C=C/C=O)cc1OC	8.62
CC1(C)C=C2[C@H]3CC[C@@H]4[C@@]5(C)CC[C@H](OC(=O)CC(C)(C)C(=O)O)C(C)(C)[C@@H]5CC[C@@]4(C)[C@]3(C)CC[C@@]2(C(=O)O)CC1	18

Pending molecule:
[Q] Requested field: selectivity ratio. Item: `C=C(C)[C@@H]1CC[C@]2(C(=O)O)CC[C@]3(C)[C@H](CC[C@@H]4[C@@]5(C)CCC(=O)C(C)(C)[C@@H]5CC[C@]43C)[C@@H]12`
[A] 8

====

Test system: H9
Test details: Cytotoxicity against human H9 cells
Type: cell-based
Exercise: for every item that follows, state its recorded IC50.
One number for each entry, in µg/mL.

Here is how some compounds turned out for IC50.
Molecular string	Readout number
CCC(=O)c1ccc(O)c(OC)c1	18.8
C=C(C)[C@@H]1CC[C@]2(C(=O)O)CC[C@]3(C)[C@H](CC[C@@H]4[C@@]5(C)CCC(=O)C(C)(C)[C@@H]5CC[C@]43C)[C@@H]12	1.8

Value sought for every listed compound: IC50.
1. COc1ccc(/C=C/C=O)cc1OC
2. C=C(COC(C)=O)[C@H]1Cc2cc(C(C)=O)ccc2O1
3. CC1(C)C=C2[C@H]3CC[C@@H]4[C@@]5(C)CCC(=O)C(C)(C)[C@@H]5CC[C@@]4(C)[C@]3(C)CC[C@@]2(C(=O)O)CC1
4. C/C(=C/CC[C@@H](C)[C@H]1CC[C@@]2(C)C3=C(CC[C@]12C)[C@@]1(C)CCC(=O)C(C)(C)[C@@H]1CC3)C(=O)O

[A]
1: 18.9; 2: 2.07; 3: 18.6; 4: 2.14

====

Test system: H9
Test details: Cytotoxicity against human H9 cells
Type: cell-based
Assay metric: IC50 (µg/mL)
Numbers only, in µg/mL.

Here is how some compounds turned out for IC50.
Molecular string	Output unit	IC50
CC1(C)C=C2[C@H]3CC[C@@H]4[C@@]5(C)CC[C@H](O)C(C)(C)[C@@H]5CC[C@@]4(C)[C@]3(C)CC[C@@]2(C(=O)O)CC1	µg/mL	22.1
CC1(C)C=C2[C@H]3CC[C@@H]4[C@@]5(C)CC[C@H](OC(=O)CC(C)(C)C(=O)O)C(C)(C)[C@@H]5CC[C@@]4(C)[C@]3(C)CC[C@@]2(C(=O)O)CC1	µg/mL	18.1

Pending compound:
[Q] Requested field: IC50. Item: `CC1(C)CC[C@@]23CC[C@]4(C)[C@@](C=C[C@@H]5[C@@]6(C)CCC(=O)C(C)(C)[C@@H]6CC[C@]54C)(OC2=O)[C@@H]3C1`
[A] 0.205

FYI, the data here is from ChEMBL document CHEMBL1156354.
